FYI, the data here is from patent US20150004189A1.

molecular target: HLA DQ molecule DQB1*0503 (human); assay: inhibition of radiolabeled peptide binding to purified HLA class II
quantity kind: pIC50
// returns pIC50 (minus log10 of molar concentration), number only

# annotated cases, reported pIC50 shown
INSERT INTO measurements (binder, readout_number) VALUES
  ('MRNVFDDVVPADFKV [Lol p 2 peptide, position 76, MRNVFDDVVPADFKV (Peptide ID 3337.0030)]', 6.46),
  ('SDAKTLVLNIKYTRP [Lol p 3 peptide, position 11, SDAKTLVLNIKYTRP (Peptide ID 3324.1142)]', 4.47),
  ('LIEKINAGFKAAVAA [Lol p 5 1 peptide, position 71, LIEKINAGFKAAVAA (Peptide ID 3324.1175)]', 6.83);

The binder identified as DSYKFIPTLVAAVKQ [Lol p 5 1 peptide, position 236, DSYKFIPTLVAAVKQ (Peptide ID 3324.1165)] registered its pIC50 at 5.33

In plain terms, GAYETYKFIPSLEAA [Pha a 5 peptide, position 201, GAYETYKFIPSLEAA (Peptide ID 3324.1433)] has a documented pIC50 of 6.45

pIC50 measured on DAFIAALTEALRVIA [Pha a 5 peptide, position 121, DAFIAALTEALRVIA (Peptide ID 3324.1432)] = 4.30

Looking up RYANPIAFFRKEPLK [Lol p 11 peptide, position 111, RYANPIAFFRKEPLK (Peptide ID 3324.1138)] , I found its pIC50 recorded as 5.80
